experiment: Antiproliferative activity against human IN1528 cells after 72 hrs by sulforhodamine B assay; assay type: functional, cell-based; conditions: IN1528, 72 h
pEC50: −log10 of the molar value.
Short version: pEC50 at least 4 is T, less is F.

Task: API: above_or_equal(metric=pEC50, cutoff=4) for item CCCCCCC(=O)Oc1ccccc1-c1cc2ccccc2[nH]1
Result: T

Task: # bool: pEC50 of NC(=O)c1ccccc1O [SALICYLAMIDE] >= 4
Result: F

Task: Is pEC50 at least 4? Consider COc1ccccc1O
Result: F

Task: Kindly determine if pEC50 recorded for Cc1ccc(O)c(-c2cc3ccccc3[nH]2)c1 is above or exactly 4.
Result: T

Task: Check this compound for pEC50 at or above 4: Oc1ccccc1-c1nc2ccccc2[nH]1
Result: T

----------
assay: Antiproliferative activity against human IN1528 cells after 72 hrs by sulforhodamine B assay; format: functional, cell-based; details: IN1528, 72 h
parameter: EC50 (µM)
Write the number in µM without appending the unit.

| smiles-string | EC50, µM |
| --- | --- |
| O=C1c2ccccc2C(=O)N1c1ccccc1O | 744 |

// EC50 lookup, compound = O=C(Oc1ccccc1-c1cc2ccccc2[nH]1)c1ccccc1 , result: 38

For record Oc1ccc(-c2ccccc2)cc1 the listed EC50 is 85

According to the records, this compound Oc1ccccc1 displays EC50 of 747

What the record says about CC(=O)Oc1ccccc1C(=O)O : EC50 is 787

----------
Here, each record is paired with measured pEC50 data.
experiment: Antiproliferative activity against human IN1528 cells after 72 hrs by sulforhodamine B assay; format: functional, cell-based; conditions: IN1528, 72 h
Convention used: pEC50 is expressed as -log10 of the molar concentration.

The cases that follow already have their pEC50 on record.
| compound | pEC50 |
| --- | --- |
| Oc1ccccc1-c1cc2ccccc2[nH]1 [2-(2'-HYDROXYPHENYL)-1H-INDOLE] | 4.00 |
| Oc1ccccc1-c1ccc2ccccc2c1 | 3.98 |
| Cc1ccccc1O | 3.13 |
| Oc1ccccc1OCc1ccccc1 | 3.71 |
| CC(=O)Oc1ccccc1-c1cc2ccccc2[nH]1 | 4.10 |

Consider Nc1ccccc1-c1cc2ccccc2[nH]1 . Its measured pEC50 is 3.82

Note to self: pEC50 recorded for Oc1ccccc1-c1ccccc1 was 3.44

compound Oc1ccccc1-c1c[nH]c2ccccc12 , pEC50 observed: 3.92

GET /value?item= O=[N+]([O-])c1ccccc1O [NITROPHENOLATE] &field=pEC50 returns 3.05
